MEASURED_TARGET: 5-HT2A receptor (Homo sapiens)
Sequence (P28223 whole entry): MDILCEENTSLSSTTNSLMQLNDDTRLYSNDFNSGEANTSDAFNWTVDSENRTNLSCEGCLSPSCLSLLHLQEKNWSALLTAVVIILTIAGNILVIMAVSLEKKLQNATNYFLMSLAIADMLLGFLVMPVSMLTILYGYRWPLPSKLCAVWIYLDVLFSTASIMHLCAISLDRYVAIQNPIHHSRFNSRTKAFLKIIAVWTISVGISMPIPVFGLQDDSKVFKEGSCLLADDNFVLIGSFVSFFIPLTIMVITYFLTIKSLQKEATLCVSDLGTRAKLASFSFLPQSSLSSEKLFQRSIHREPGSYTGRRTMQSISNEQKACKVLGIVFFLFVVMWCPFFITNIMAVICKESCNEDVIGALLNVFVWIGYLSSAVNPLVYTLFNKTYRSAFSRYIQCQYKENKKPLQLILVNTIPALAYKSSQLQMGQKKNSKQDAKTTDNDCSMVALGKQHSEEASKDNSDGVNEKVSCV
PROCEDURE_TEXT: cell-based
Type: cell-based
Set-up: expressed in transfected cells; host or cells: HEK293, stably transfected
CONDITION_DESCRIPTION: HEK293, agonist, Ca2+ flux, HEK293, max dose; read-out: 5-HT2A % Act @ Max Dose
Hi! Could you tag entries with Emax below 80% as TRUE, and those at or above as FALSE? Much appreciated.

COMPOUND_STRUCTURE: CC[C@@H](C)NC(=O)[C@@H]1C=C2c3cccc4[nH]c(Br)c(c34)C[C@H]2N(C)C1
ANSWER_LABEL: TRUE
//
COMPOUND_STRUCTURE: CCN(CC)C(=O)[C@@H]1C=C2c3cccc4[nH]cc(c34)C[C@H]2N(Cc2cccc(OC)c2)C1
ANSWER_LABEL: TRUE
//
COMPOUND_STRUCTURE: CCNC(=O)[C@@H]1C=C2c3cccc4[nH]cc(c34)C[C@H]2N(Cc2cccc(O)c2)C1
ANSWER_LABEL: TRUE
//
COMPOUND_STRUCTURE: CCCN1C[C@H](C(=O)N[C@H](C)CC)C=C2c3cccc4[nH]cc(c34)C[C@H]21
ANSWER_LABEL: FALSE
//
COMPOUND_STRUCTURE: CCN(C)C(=O)[C@@H]1C=C2c3cccc4[nH]cc(c34)C[C@H]2N(Cc2cccc(OC)c2)C1
ANSWER_LABEL: TRUE

Would you kindly look at the next entry?
Req: Regarding CCCN1C[C@H](C(=O)NC(CC)CC)C=C2c3cccc4[nH]cc(c34)C[C@H]21 , kindly confirm whether its Emax is beneath 80%.
Resp: FALSE

* * *

Catalogue of Emax values
MEASURED_TARGET: 5-HT1B receptor (Homo sapiens, UniProt P28222)
Construct: expressed in transfected cells
Sequence (P28222 whole entry): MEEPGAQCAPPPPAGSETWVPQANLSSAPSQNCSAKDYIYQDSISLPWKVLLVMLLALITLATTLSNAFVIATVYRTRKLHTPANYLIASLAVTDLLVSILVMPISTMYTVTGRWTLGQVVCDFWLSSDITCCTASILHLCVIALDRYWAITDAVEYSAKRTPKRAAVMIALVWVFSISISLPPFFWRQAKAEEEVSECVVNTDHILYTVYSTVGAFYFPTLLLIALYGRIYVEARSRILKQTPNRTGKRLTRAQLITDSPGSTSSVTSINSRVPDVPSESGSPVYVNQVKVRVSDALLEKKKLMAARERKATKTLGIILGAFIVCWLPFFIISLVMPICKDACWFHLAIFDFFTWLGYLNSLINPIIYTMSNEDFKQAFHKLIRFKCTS
PROCEDURE_TEXT: cAMP accumulation functional assay at 5-HT1B
Assay type: cell-based
CONDITION_DESCRIPTION: agonist, cAMP accumulation, max dose; read-out: 5-HT1B % Act @ Max Dose
Mention the unit after the number when you answer.

// below: answered compounds
COMPOUND: CCNC(=O)[C@@H]1C=C2c3cccc4[nH]cc(c34)C[C@H]2N(Cc2cccc(O)c2)C1 [Compound 64]
PROPERTY_MEASURED: Emax
RECORDED_RESULT: 68.8%
--
COMPOUND: CCN(CC)C(=O)[C@@H]1C=C2c3cccc4[nH]c(Br)c(c34)C[C@H]2N(CCC(F)(F)F)C1 [Compound 42]
PROPERTY_MEASURED: Emax
RECORDED_RESULT: 33.1%
--
COMPOUND: CCC(CC)NC(=O)[C@@H]1C=C2c3cccc4[nH]c(Br)c(c34)C[C@H]2N(C)C1 [Compound 44]
PROPERTY_MEASURED: Emax
RECORDED_RESULT: 68.5%

Req: Give Emax; test system 5-HT1B receptor (Homo sapiens, UniProt P28222); compound CCN(CC)C(=O)[C@@H]1C=C2c3cccc4[nH]cc(c34)C[C@H]2N(CCc2cccc(OC)c2)C1 [Compound 20]
Resp: 34.6%

Req: State measured Emax of the compound CCN(CC)C(=O)[C@@H]1C=C2c3cccc4[nH]cc(c34)C[C@H]2N(Cc2cccc(OC)c2)C1 [Compound 18] with 5-HT1B receptor (Homo sapiens, UniProt P28222).
Resp: 83.3%

Req: Tell me its Emax on 5-HT1B receptor (Homo sapiens, UniProt P28222): CCN(CC)C(=O)[C@@H]1C=C2c3cccc4[nH]cc(c34)C[C@H]2N(Cc2ccc(Cl)cc2)C1 [Compound 50]
Resp: 41.9%

Req: State measured Emax of the compound CCN(CC)C(=O)[C@@H]1C=C2c3cccc4[nH]cc(c34)C[C@H]2N(Cc2ccccc2OC)C1 [Compound 10] with 5-HT1B receptor (Homo sapiens, UniProt P28222).
Resp: 87.3%
